- Study target: Dihydroorotate dehydrogenase (quinone), mitochondrial (Plasmodium falciparum (isolate 3D7)) (UniProt Q08210)
- Sequence (Q08210 whole entry, looked up): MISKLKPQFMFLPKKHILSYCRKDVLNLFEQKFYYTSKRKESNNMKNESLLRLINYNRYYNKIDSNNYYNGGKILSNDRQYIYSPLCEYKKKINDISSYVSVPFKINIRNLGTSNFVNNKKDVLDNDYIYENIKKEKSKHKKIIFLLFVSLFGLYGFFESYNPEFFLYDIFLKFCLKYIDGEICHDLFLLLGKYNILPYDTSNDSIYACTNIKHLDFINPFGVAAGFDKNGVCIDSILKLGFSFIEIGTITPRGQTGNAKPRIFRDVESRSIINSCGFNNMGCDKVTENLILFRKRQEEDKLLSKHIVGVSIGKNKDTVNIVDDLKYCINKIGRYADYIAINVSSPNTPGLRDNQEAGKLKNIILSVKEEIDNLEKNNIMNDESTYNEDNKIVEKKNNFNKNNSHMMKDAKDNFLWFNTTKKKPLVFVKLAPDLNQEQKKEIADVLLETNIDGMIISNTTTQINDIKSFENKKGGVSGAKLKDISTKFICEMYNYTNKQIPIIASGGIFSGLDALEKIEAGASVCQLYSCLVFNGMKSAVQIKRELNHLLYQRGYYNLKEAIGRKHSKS
- Run description: PfDHODH enzyme inhibitors, primary screen, biochemical, C-terminal His tag, absorbance 600 nm (AID 1175);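 note: recombinant parasite enzyme with a five histidine tag at its C terminus; test concentration not given here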
- Condition details: DCIP absorbance 600 nm, higher = more signal, called active from +8 up or from −8 down

Compound | composite z-score
CC1(C)O[C@H]2OC([C@H](O)CON3C(=O)c4ccccc4C3=O)[C@H](O)[C@H]2O1 (some centres not stated) | -0.559
CCN1C(=O)[C@H]2[C@H]3[C@H](O)[C@H](O)CC(=NOC[C@@H](O)[C@H]4O[C@@H]5OC(C)(C)O[C@@H]5[C@H]4O)[C@@H]3CC[C@H]2C1=O | -0.898
O=C1[C@H]2[C@H]3[C@H](O)[C@H](O)CC(=NOC[C@@H](O)COCc4ccco4)[C@@H]3CC[C@H]2C(=O)N1c1cccc(Oc2ccccc2)c1 | 0.295
Cc1ccc2[nH]c3nc(CCCn4ccnc4-c4ccccc4)nnc3c2c1 | 0.411
COc1ccc(OC[C@H]2CN3[C@@H](CC[C@@H](C)[C@@H]3c3ccc(Br)cc3)C(=O)O2)cc1 | 0.217
C[C@@H]1CC[C@H]2C(=O)O[C@@H](CN=[N+]=[N-])CN2[C@H]1c1ccc(Br)cc1 | 5.24
CC(C)(C)N1C(=O)[C@H]2[C@H]3[C@H](O)[C@H](O)CC(=NNC(=O)OCc4ccccc4)[C@@H]3CC[C@H]2C1=O | -0.111

###

- Run description: modulators of S6 phosphorylation in cells, primary screen, cell-based, A549, cytoblot, luminescence, serum-stimulated (AID 1158);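 note: serum-stimulated A549 lung adenocarcinoma cells; signal is phosphorylated S6 detected by cytoblot immunostaining with HRP secondary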
- Condition details: A549 phospho-S6 cytoblot, 5 h, higher = more signal

Molecule | z-score
CO[C@H]1COC(=O)CCC[C@H](C)[C@H](OC)COC(=O)CC=C[C@@H]1C | 1.18
CCc1cc2c(nc1CC)CCN(CCC(C)=NOCC[C@@H]1C=C[C@H](OC(C)=O)[C@@H](COC(C)=O)O1)C2 | -1.04
O=C1C=C[C@@H](O)[C@@H]2[C@@H]3C(=O)N(Cc4ccccc4)C(=O)[C@@H]3CC[C@@H]12 | 0.09
COC(=O)[C@H](C)NC(=O)CCC1CC(OC(=O)NCCc2ccc(F)cc2)CC2(CCCC(COC(=O)NCCc3ccccc3OC)O2)O1 (stereo partly drawn) | 0.364
COc1ccc(COC(=O)NN=C2C[C@@H](O)[C@@H](O)[C@@H]3[C@@H]4C(=O)N(C5CCCCC5)C(=O)[C@@H]4CC[C@@H]23)cc1 | -0.185
C=C(C)C(=O)OC[C@H]1CN2[C@@H](CC[C@@H](C)[C@@H]2c2ccc(Br)cc2)C(=O)O1 | 0.861
O=C1C=C[C@@H](O)[C@@H]2[C@@H]3C(=O)N(c4cccc(Oc5ccccc5)c4)C(=O)[C@@H]3CC[C@@H]12 | 0.249
CSCC[C@@H]1NC(=O)CC=C[C@@H](C)COC(=O)[C@H](C)COC1=O | 2.08

###

Recorded z-score for the following compounds
- Run description: Plasmodium falciparum growth inhibition, primary screen, strain 3D7, DAPI fluorescence, 100 nL (AID 1184);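 note: parasites grown inside human red blood cells in medium with human serum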
- Condition details: P. falciparum 3D7 growth, 3 d, higher = more signal
Reported endpoint: z-score

Compound | Reported endpoint | Reading
C#CCCCON=C1[C@H]2CCn3c(=O)n(Cc4cc5c(cc4Cl)OCO5)c(=O)n3[C@H]2[C@H](O)[C@@H]2O[C@H]12 | z-score | -0.579
O=C1[C@H]2CCn3c(=O)n(Cc4cc5c(cc4Cl)OCO5)c(=O)n3[C@H]2[C@H](O)[C@@H]2O[C@H]12 | z-score | 0.0829
CC(C)CON=C1[C@H]2CCn3c(=O)n(C)c(=O)n3[C@H]2[C@H](O)[C@@H]2O[C@H]12 | z-score | 1.43
CCOC(=O)[C@H](Cc1ccccc1)NC(=O)CCC1CC(OC(=O)NCc2ccc3c(c2)OCO3)CC2(CCCC(COC(=O)NCCc3ccc(Cl)cc3)O2)O1 (some centres undefined) | z-score | -1.78

###

Measured composite z-score, listed per entry for reference.
- Study target: Neurogenic locus notch homolog protein 2 (Homo sapiens)
- Run description: Notch2 binders on small-molecule microarrays, primary screen, biochemical, small-molecule microarray, 635 nm fluorescence, stem cell growth factors (AID 1073)
- Condition details: Notch2 binding, higher = more signal

Molecule | composite z-score
O=C1C[C@H](c2ccccc2)[C@H](c2ccc(Br)cc2)O1 | 0.0429
O=C1C=C[C@@H](O)[C@@H]2[C@@H]3C(=O)N(Cc4ccccc4)C(=O)[C@@H]3CC[C@@H]12 | 0.632
CC(=O)OC[C@H]1O[C@H](CC=NOC[C@@H](O)[C@H]2O[C@@H]3OC(C)(C)O[C@@H]3[C@H]2O)C=C[C@@H]1OC(C)=O | 1.04
COc1ccc(O[C@H]2C=C[C@@H](c3ccccc3)O[C@@H]2COC(=O)NCc2cccc3ccccc23)cc1 | -0.096
OC[C@H]1O[C@H](C#Cc2ccccc2)C=C[C@@H]1O | 0.322
CCCCOC(OCCCC)C(O)CSc1ccc2ccccc2c1 (centres undefined) | 0.525
COC(=O)[C@H](CCSC)NC(=O)CC=C[C@@H](C)CO | 0.175
O=C1CCCC=C1C(O)COCc1ccccc1 (centres undefined) | -0.263
CCOC(=O)[C@H](Cc1ccccc1)NC(=O)CCC1CC(OC(=O)NCc2ccc3c(c2)OCO3)CC2(CCCC(COC(=O)NCCCN3CCCC3=O)O2)O1 (some centres undefined) | 1.06

###

- Run description: small-molecule binders of probe aInhba, primary screen, biochemical, small-molecule microarray, 635/667 nm fluorescence (AID 1148);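 note: score merges 667nm spot fluorescence with signal-to-noise for antibody binding to printed compounds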
- Condition details: higher = more signal
Record label 1 whenever composite z-score is at -0.1 or higher; record label 0 when lower.

Compound | Label class
O=C1[C@H]2[C@H]3[C@H](O)[C@H](O)CC(=NOC[C@@H](O)COCc4ccco4)[C@@H]3CC[C@H]2C(=O)N1Cc1ccccc1 | label 0
COc1ccc(COC(=O)NN=C2C[C@@H](O)[C@@H](O)[C@@H]3[C@@H]4C(=O)N(Cc5ccccc5)C(=O)[C@@H]4CC[C@@H]23)cc1 | label 1
CO[C@@H]1[C@H](O)CO[C@H]1C=Cc1ccccc1 | label 0
CON=C(C)CCN1CCCCc2nc(C)c(C)cc21 | label 1
CC(=O)OC[C@H]1O[C@@H](ON=C(C)CCC(=O)OC[C@H]2O[C@H](C#Cc3ccccc3)C=C[C@@H]2Oc2ccc(C)cc2)[C@H](OC(C)=O)[C@@H](OC(C)=O)[C@@H]1OC(C)=O | label 1
CC(=O)OC[C@H]1O[C@H](CC=NO[C@H](C)c2cn([C@@H]3COC[C@H]3O)nn2)C=C[C@@H]1OC(C)=O | label 1
O=C1C2=CC[C@H]3C(=O)N(C[C@@H]4CCCO4)C(=O)[C@H]3[C@H]2[C@H](O)[C@@H]2O[C@H]12 | label 0
CCOC(=O)[C@H](CC(C)C)NC(=O)CCC1CC(OC(=O)NCCc2ccc(F)cc2)CC2(CCCC(COC(=O)NCCOC)O2)O1 (stereo not given in full) | label 0
CO[C@@H]1COC(=O)CC=C[C@H](C)[C@H](OC)COC(=O)[C@@H]2CCCN2C(=O)CC=C[C@H]1C | label 1
COC(=O)[C@H](C)NC(=O)CCC1CC(OC(=O)NCc2ccc3c(c2)OCO3)CC2(CCCC(COC(=O)NCc3ccccc3)O2)O1 (stereo not given in full) | label 1
C[C@H]1C=CCC(=O)OC[C@H](C)C(=O)N2CCC[C@H]2C(=O)OC1 | label 0
CC[C@@H](c1ccccc1)n1c(=O)n2n(c1=O)[C@H]1[C@H](O)[C@@H]3O[C@@H]3C(=NOCc3ccccc3)[C@H]1CC2 | label 1
C=CC[C@@H]1C=C[C@H](ON=CC[C@@H]2C=C[C@H](OC(C)=O)[C@@H](COC(C)=O)O2)[C@@H](CO)O1 | label 1
O=C1[C@H]2[C@H]3[C@H](O)[C@H](O)CC(=NO[C@@H]4O[C@H](CO)[C@@H](O)[C@H](O)[C@H]4O)[C@@H]3CC[C@H]2C(=O)N1C1CCCCC1 | label 1
CC(C)CN1CCc2nc(-c3ccccc3)c3c(c2C1)CO[C@@H](C)C3 | label 1
COc1ccc(OC[C@@H](CO)OC)cc1 | label 1
CCN1C(=O)[C@H]2[C@H]3[C@H](O)[C@H](O)CC(=NOC(C)CN4CCCc5nc(C)c(C)cc54)[C@@H]3CC[C@H]2C1=O (stereo not given in full) | label 1
CC(=O)OC[C@H]1O[C@H](CC=NO[C@@H](C)c2cc(-c3c(C)cc(C)cc3C)no2)C=C[C@@H]1OC(C)=O | label 0
COC(=O)[C@H](C)NC(=O)CCC1CC(OC(=O)NCc2cccc3ccccc23)CC2(CCCC(COC(=O)NCc3ccccc3)O2)O1 (stereo not given in full) | label 1
CC1(C)O[C@H]2OC([C@H](O)CON3C(=O)c4ccccc4C3=O)[C@H](O)[C@H]2O1 (stereo not given in full) | label 1
CC(=O)OC[C@H]1O[C@H](CC=NOC(C)CN2CCCCc3nc(C)c(C)cc32)C=C[C@@H]1OC(C)=O (stereo not given in full) | label 0
CCOC(=O)[C@H](Cc1ccccc1)NC(=O)CCC1CC(OC(=O)NCCc2ccc(F)cc2)CC2(CCCC(COC(=O)NCCC(C)C)O2)O1 (stereo not given in full) | label 0
C[C@@H]1CC[C@H]2C(=O)O[C@@H](COc3ccc(C(C)(C)C)cc3)CN2[C@H]1c1ccc(Br)cc1 | label 1
CCCNC(=O)OC[C@H]1O[C@H](CCON=C[C@@H](NS(=O)(=O)c2ccc(C)cc2)[C@H](C)C=CCC(=O)OC)C=C[C@@H]1Oc1ccc(OC)cc1 | label 1
CC(C)=NOC(C)CN1CCCCc2nc(C)c(C)cc21 (stereo not given) | label 1
CCC1=NOC(CCC2CC(OC(=O)NCc3cccc4c3OCO4)CC3(CCCC(COC(=O)NCCc4ccc(Cl)cc4)O3)O2)C1 (stereo not given) | label 1
CC(=O)OC[C@H]1O[C@H](CC=NOCC[C@@H]2C=C[C@H](OC(C)=O)[C@@H](COC(C)=O)O2)C=C[C@@H]1OC(C)=O | label 1
CC(CCC(=O)OC[C@H]1O[C@H](C#Cc2ccccc2)C=C[C@@H]1Oc1ccc(C)cc1)=NO[C@@H](C)c1cc(-c2c(C)cc(C)cc2C)no1 | label 0
